- target.or.system: T1, human glycophorin A in the red blood cell membrane (human, UniProt P02724 20-150)
- T1 construct: whole, on cells; used for intact RBC, isolated RBC membranes and transfected cells; the assay field tells which; also called GPA; hGPA
- T1 sequence (looked up): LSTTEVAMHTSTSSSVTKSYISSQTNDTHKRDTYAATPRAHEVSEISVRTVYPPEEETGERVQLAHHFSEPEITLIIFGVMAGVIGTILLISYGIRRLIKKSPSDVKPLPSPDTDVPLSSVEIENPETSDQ
- assay.text: FACS, RBC Hu01
metric: fluorescence intensity

>  <binder>
Hu6C12-9 (antibody, V domains shown, IgG format; VH.1 + Vk.1a) VH: EVQLVQSGAEVKKPGASVKVSCKASGYTFTTYTIHWVRQAPGQGLEWMGYINPSSDYTRYNPKFKDRVTMTTDTSTSTAYMELRSLRSDDTAVYYCARGTRDYWGQGTTVTVSS VL: DIQLTQSPSFLSASVGDRVTITCSAASSVSYIYWYQQKPGKAPKLLIYSTSTLPSGVPSRFSGSGSGTEYTLTISSLQPEDFATYYCHQRNSFPFTFGQGTKLEIK

>  <metric>
fluorescence intensity

>  <experimental.value>
3

$$$$

Query binder follows.
Look at this binder and give its reported fluorescence intensity. Hu6C12-1 (antibody, V domains shown, IgG format; VH.1a + Vk.1) VH: EVQLVQSGAEVKKPGASVKVSCKASGYTFTTYTIHWVRQAPGQGLEWMGYINPSSDYTRYNPKFKDRVTMTTDTSTSTAYMELRSLRSDDTAVYYCQRGTRDYWGQGTTVTVSS VL: DIQLTQSPSFLSASVGDRVTITCSAASSVSYIYWYQQKPGKAPKLLIYSTSTLPSGVPSRFSGSGSGTEFTLTISSLQPEDFATYYCHQRNSFPFTFGQGTKLEIK 3

FYI, the data here is from patent US20190359687A1.
